src = patent US20260083865A1

- TARGET: Fc-fusion protein of human PSMA (hPSMA-Fc) (Homo sapiens)
- Construct: purchased Acro Biosystems PSA-H5264
- TEST: Surface plasmon resonance assay (Biacore T200, single cycle kinetic)
- Type: binding
- CONDITION_CONTEXT: pKD category for PSMA SPR activity assay, hPSMA-Fc, 25° C.; read-out: pKD CAT (converted)
Numbered stars: 1 amine (or outer) side, 2 acyl side, 3 side chain; on linkers, the order of the positions; unused ones are H or OH. Bridge positions count the residues as written; N and C are the ends. Square brackets hold non-standard residues; d marks the D form. Peptide text beside a SMILES is read from it. * marks the point of attachment. DOTA = O=C(O)CN1CCN(CC(=O)O)CCN(CC(=O)*)CCN(CC(=O)O)CC1; Pro(trans-4-F) = O=C(O)[C@@H]1C[C@@H](F)CN1; X1 = O=C(CC1CCN([*:1])CC1)[*:2]; Cit = NC(=O)NCCC[C@H](N)C(=O)O; Tle = CC(C)(C)[C@H](N)C(=O)O; Aib = CC(C)(N)C(=O)O; CO = O=C([*:1])[*:2]; NHBu = CCCCN*
Recorded Kd for the following molecules

CCCCNC(=O)N[C@H](C(=O)NC(C)(C)C(=O)N[C@@H](Cc1ccccc1)C(=O)N[C@H]1CSSC[C@@H](C(=O)N[C@H](C(=O)N[C@H](C(=O)N2CCC(CC(=O)N[C@H](CCCCNC(=O)CN3CCN(CC(=O)O)CCN(CC(=O)O)CCN(CC(=O)O)CC3)C(N)=O)CC2)[C@@H](C)O)C(C)(C)C)NC(=O)[C@H](CC(N)=O)NC(=O)C(C)(C)NC(=O)[C@H](CCCNC(N)=O)NC(=O)[C@H](CCCCN)NC1=O)[C@@H](C)O [PSM-0434] ({NHBu-CO}-T[Aib]FCK[Cit][Aib]NC[Tle]T[X1][dK](DOTA)-NH2; disulfide 4-9) = 12.6 to 126 nM

Would you kindly look at the next entry?
// query Look up Kd for this molecule: CC(=O)N[C@H](C(=O)NC(C)(C)C(=O)N[C@@H](Cc1ccccc1)C(=O)N[C@H]1CSSC[C@@H](C(=O)N[C@H](C(=O)N[C@H](C(=O)N[C@@H](CC(=O)O)C(N)=O)[C@@H](C)O)C(C)(C)C)NC(=O)[C@H](CC(N)=O)NC(=O)[C@@H]2C[C@@H](F)CN2C(=O)[C@H](CCCNC(=N)N)NC(=O)[C@H](CCCCN)NC1=O)[C@@H](C)O [PSM-0392] (Ac-T[Aib]FCKR[Pro(trans-4-F)]NC[Tle]TD-NH2; disulfide 4-9)
// result < 12.6 nM

====

- TARGET: PSMA-expressing C4-2 cells (Homo sapiens)
- Construct: PSMA-expressing C4-2 cells (ATCC, Cat. No. CRL-3314) were cultured in RPMI-1640; host or cells: C4-2 cells
- Sequence (Q04609 whole entry): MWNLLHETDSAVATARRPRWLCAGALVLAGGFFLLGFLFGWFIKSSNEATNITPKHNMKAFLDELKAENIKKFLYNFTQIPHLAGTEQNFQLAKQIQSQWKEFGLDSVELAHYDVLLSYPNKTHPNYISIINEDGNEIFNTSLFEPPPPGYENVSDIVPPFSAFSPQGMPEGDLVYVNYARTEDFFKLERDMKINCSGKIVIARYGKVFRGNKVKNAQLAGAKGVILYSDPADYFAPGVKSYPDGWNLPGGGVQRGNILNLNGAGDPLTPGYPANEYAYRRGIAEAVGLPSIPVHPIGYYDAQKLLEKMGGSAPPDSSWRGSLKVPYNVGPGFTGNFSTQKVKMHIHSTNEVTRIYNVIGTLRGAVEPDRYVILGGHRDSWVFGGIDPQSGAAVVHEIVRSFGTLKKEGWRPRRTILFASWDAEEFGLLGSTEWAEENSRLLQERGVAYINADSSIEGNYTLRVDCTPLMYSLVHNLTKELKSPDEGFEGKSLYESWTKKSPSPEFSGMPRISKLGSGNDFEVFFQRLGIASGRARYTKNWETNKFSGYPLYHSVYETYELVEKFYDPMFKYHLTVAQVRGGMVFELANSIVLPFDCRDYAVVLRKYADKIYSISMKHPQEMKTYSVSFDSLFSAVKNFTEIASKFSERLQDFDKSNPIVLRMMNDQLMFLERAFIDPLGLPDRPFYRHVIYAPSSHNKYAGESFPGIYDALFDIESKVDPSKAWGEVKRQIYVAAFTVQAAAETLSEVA
- TEST: FACS binding assay (competition with 50 nM PSM-0183)
- CONDITION_CONTEXT: FACS binding, PSMA-expressing C4-2 cells; pIC50 category; read-out: pIC50 [C4-2] CAT (converted)
Numbered stars: 1 amine (or outer) side, 2 acyl side, 3 side chain; on linkers, the order of the positions; unused ones are H or OH. Bridge positions count the residues as written; N and C are the ends. Square brackets hold non-standard residues; d marks the D form. Peptide text beside a SMILES is read from it. * marks the point of attachment. DOTA = O=C(O)CN1CCN(CC(=O)O)CCN(CC(=O)*)CCN(CC(=O)O)CC1; Phe(4-Cl) = N[C@@H](Cc1ccc(Cl)cc1)C(=O)O; X1 = O=C(CC1CCN([*:1])CC1)[*:2]; Tle = CC(C)(C)[C@H](N)C(=O)O; Aib = CC(C)(N)C(=O)O
Recorded IC50 for the following compounds

Consider the following illustrative entries.
CC(=O)N[C@H](C(=O)NC(C)(C)C(=O)N[C@@H](Cc1ccc(Cl)cc1)C(=O)N[C@H]1CSSC[C@@H](C(=O)N[C@H](C(=O)N[C@H](C(=O)N[C@@H](CC(=O)O)C(N)=O)[C@@H](C)O)C(C)(C)C)NC(=O)[C@H](CC(N)=O)NC(=O)C(C)(C)NC(=O)[C@H](CCCNC(=N)N)NC(=O)[C@H](CCCCN)NC1=O)[C@@H](C)O [PSM-0318] (Ac-T[Aib][Phe(4-Cl)]CKR[Aib]NC[Tle]TD-NH2; disulfide 4-9) = < 200 nM
CC(=O)N[C@H](C(=O)NC(C)(C)C(=O)N[C@@H](Cc1ccccc1)C(=O)N[C@H]1CSSC[C@@H](C(=O)N[C@H](C(=O)N[C@H](C(=O)N[C@@H](CC(=O)O)C(N)=O)[C@@H](C)O)C(C)(C)C)NC(=O)[C@H](CC(N)=O)NC(=O)C(C)(C)NC(=O)[C@H](CCC(N)=O)NC(=O)[C@H](CCCCN)NC1=O)[C@@H](C)O [PSM-0334] (Ac-T[Aib]FCKQ[Aib]NC[Tle]TD-NH2; disulfide 4-9) = < 200 nM

// query Look up IC50 for this compound: C[C@@H](O)[C@H](NC(=O)[C@@H](NC(=O)[C@@H]1CSSC[C@H](NC(=O)[C@H](Cc2ccc(Cl)cc2)NC(=O)[C@@H](CCC(=O)O)NC(=O)[C@@H](NC(=O)CC2CCN(C(=O)CN3CCN(CC(=O)O)CCN(CC(=O)O)CCN(CC(=O)O)CC3)CC2)[C@@H](C)O)C(=O)N[C@@H](CCCCN)C(=O)N[C@@H](CCCNC(=N)N)C(=O)NC(C)(C)C(=O)N[C@@H](CC(N)=O)C(=O)N1)C(C)(C)C)C(N)=O [PSM-0343] ({DOTA}-[X1]T[dE][Phe(4-Cl)]CKR[Aib]NC[Tle]T-NH2; disulfide 5-10)
// result > 3160 nM

====

- TARGET: PSMA-expressing C4-2 cells (Homo sapiens)
- Construct: PSMA-expressing C4-2 cells (ATCC, Cat. No. CRL-3314) were cultured in RPMI-1640; host or cells: C4-2 cells
- TEST: FACS binding assay (competition with 50 nM PSM-0183)
- CONDITION_CONTEXT: FACS binding, C4-2 cells, category; read-out: pIC50 [C4-2] CAT (converted)
Numbered stars: 1 amine (or outer) side, 2 acyl side, 3 side chain; on linkers, the order of the positions; unused ones are H or OH. Bridge positions count the residues as written; N and C are the ends. Square brackets hold non-standard residues; d marks the D form. Peptide text beside a SMILES is read from it. * marks the point of attachment. DOTA = O=C(O)CN1CCN(CC(=O)O)CCN(CC(=O)*)CCN(CC(=O)O)CC1; Phe(4-Cl) = N[C@@H](Cc1ccc(Cl)cc1)C(=O)O; X1 = O=C(CC1CCN([*:1])CC1)[*:2]; NMeN = CN[C@@H](CC(N)=O)C(=O)O; Tle = CC(C)(C)[C@H](N)C(=O)O; Aib = CC(C)(N)C(=O)O
METRIC_NAME: IC50

// query So what IC50 did C[C@@H]1NC(=O)[C@H](CCCNC(=N)N)NC(=O)[C@H](CCCCN)NC(=O)[C@@H](NC(=O)[C@H](Cc2ccc(Cl)cc2)NC(=O)C(C)(C)NC(=O)[C@@H](NC(=O)CC2CCN(C(=O)CN3CCN(CC(=O)O)CCN(CC(=O)O)CCN(CC(=O)O)CC3)CC2)[C@@H](C)O)CSSC[C@@H](C(=O)N[C@H](C(=O)N[C@H](C(N)=O)[C@@H](C)O)C(C)(C)C)NC(=O)[C@H](CC(N)=O)N(C)C1=O [PSM-0585] ({DOTA}-[X1]T[Aib][Phe(4-Cl)]CKRA[NMeN]C[Tle]T-NH2; disulfide 5-10) get with PSMA-expressing C4-2 cells (Homo sapiens)?
// result < 200 nM

====

- TARGET: Fc-fusion protein of human PSMA (hPSMA-Fc) (Homo sapiens, UniProt Q04609)
- Construct: purchased Acro Biosystems PSA-H5264
- Sequence (Q04609 44-750 limits assumed): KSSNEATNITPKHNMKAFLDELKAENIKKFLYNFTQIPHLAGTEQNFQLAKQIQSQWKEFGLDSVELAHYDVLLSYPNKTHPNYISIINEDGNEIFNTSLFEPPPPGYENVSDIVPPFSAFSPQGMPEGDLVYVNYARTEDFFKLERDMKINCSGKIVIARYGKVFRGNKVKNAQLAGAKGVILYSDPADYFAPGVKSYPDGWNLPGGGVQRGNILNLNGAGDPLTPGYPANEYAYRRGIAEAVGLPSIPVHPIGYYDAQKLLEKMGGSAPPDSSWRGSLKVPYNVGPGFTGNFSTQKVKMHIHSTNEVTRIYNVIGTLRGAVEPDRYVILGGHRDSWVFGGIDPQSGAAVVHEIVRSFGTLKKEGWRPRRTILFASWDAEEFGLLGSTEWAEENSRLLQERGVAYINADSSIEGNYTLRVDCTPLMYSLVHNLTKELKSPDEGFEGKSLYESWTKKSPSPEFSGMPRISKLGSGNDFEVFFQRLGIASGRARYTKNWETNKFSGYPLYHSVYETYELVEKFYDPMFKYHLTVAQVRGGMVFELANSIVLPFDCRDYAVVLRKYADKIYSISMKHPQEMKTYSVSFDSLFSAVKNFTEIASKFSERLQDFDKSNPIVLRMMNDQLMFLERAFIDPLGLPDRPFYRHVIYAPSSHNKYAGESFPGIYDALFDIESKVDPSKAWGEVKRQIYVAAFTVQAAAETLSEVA
- TEST: Surface plasmon resonance assay (Biacore T200, single cycle kinetic)
- Type: binding
- CONDITION_CONTEXT: pKD category for PSMA SPR activity assay, hPSMA-Fc, 25° C.; read-out: pKD CAT (converted)
Numbered stars: 1 amine (or outer) side, 2 acyl side, 3 side chain; on linkers, the order of the positions; unused ones are H or OH. Bridge positions count the residues as written; N and C are the ends. Square brackets hold non-standard residues; d marks the D form. Side chains are listed from the residue outwards. Peptide text beside a SMILES is read from it. * marks the point of attachment. DOTA = O=C(O)CN1CCN(CC(=O)O)CCN(CC(=O)*)CCN(CC(=O)O)CC1; Phe(4-Cl) = N[C@@H](Cc1ccc(Cl)cc1)C(=O)O; hPhe = N[C@@H](CCc1ccccc1)C(=O)O; X1 = O=C(CC1CCN([*:1])CC1)[*:2]; Tle = CC(C)(C)[C@H](N)C(=O)O; 4Amb = NCc1ccc(C(=O)O)cc1; Dap = NC[C@H](N)C(=O)O; Aib = CC(C)(N)C(=O)O; CO = O=C([*:1])[*:2]; Guanidino = N=C(N)N*
Recorded Kd for the following compounds

CC(=O)N[C@H](C(=O)NC(C)(C)C(=O)N[C@@H](Cc1ccccc1)C(=O)N[C@H]1CSSC[C@@H](C(=O)N[C@H](C(=O)N[C@@H](Cc2ccccc2)C(N)=O)C(C)(C)C)NC(=O)[C@H](CC(N)=O)NC(=O)C(C)(C)NC(=O)[C@H](CCCNC(=N)N)NC(=O)[C@H](CCCCN)NC1=O)[C@@H](C)O [PSM-0556] (Ac-T[Aib]FCKR[Aib]NC[Tle]F-NH2; disulfide 4-9) = < 12.6 nM
CC(=O)NC(C)(C)C(=O)N[C@@H](Cc1ccc(Cl)cc1)C(=O)N[C@H]1CSSC[C@@H](C(=O)N[C@H](C(N)=O)C(C)(C)C)NC(=O)[C@H](CC(N)=O)NC(=O)C(C)(C)NC(=O)[C@H](CCCNC(=N)N)NC(=O)[C@H](CCCCN)NC1=O [PSM-0424] (Ac-[Aib][Phe(4-Cl)]CKR[Aib]NC[Tle]-NH2; disulfide 3-8) = < 12.6 nM
C[C@@H](O)[C@H](NC(=O)[C@@H](NC(=O)[C@@H]1CSSC[C@H](NC(=O)[C@H](Cc2ccc(Cl)cc2)NC(=O)C(C)(C)NC(=O)[C@@H](NC(=O)CC2CCN(C(=O)CN3CCN(CC(=O)O)CCN(CC(=O)O)CCN(CC(=O)O)CC3)CC2)[C@@H](C)O)C(=O)N[C@@H](CCCCN)C(=O)N[C@@H](CNC(=O)NC(=N)N)C(=O)NC(C)(C)C(=O)N[C@@H](CC(N)=O)C(=O)N1)C(C)(C)C)C(N)=O [PSM-0546] ({DOTA}-[X1]T[Aib][Phe(4-Cl)]CK[Dap]([CO-Guanidino])[Aib]NC[Tle]T-NH2; disulfide 5-10) = < 12.6 nM

// query Look up Kd for this compound: CC(C)(NC(=O)c1ccc(CNC(=O)CN2CCN(CC(=O)O)CCN(CC(=O)O)CCN(CC(=O)O)CC2)cc1)C(=O)N[C@@H](Cc1ccccc1)C(=O)N[C@H]1CSSC[C@@H](C(=O)N[C@H](C(N)=O)C(C)(C)C)NC(=O)[C@H](CC(N)=O)NC(=O)C(C)(C)NC(=O)[C@H](CCCNC(=N)N)NC(=O)[C@H](CCCCN)NC1=O [PSM-0458] ({DOTA-4Amb}-[Aib]FCKR[Aib]NC[Tle]-NH2; disulfide 3-8)
// result 12.6 to 126 nM

// query Look up Kd for this compound: CC(=O)N[C@H](C(=O)NC(C)(C)C(=O)N[C@@H](CCc1ccccc1)C(=O)N[C@H]1CSSC[C@@H](C(=O)N[C@H](C(=O)N[C@H](C(N)=O)[C@@H](C)O)C(C)(C)C)NC(=O)[C@H](CC(N)=O)NC(=O)C(C)(C)NC(=O)[C@H](CCCNC(=N)N)NC(=O)[C@H](CCCCN)NC1=O)[C@@H](C)O [PSM-0411] (Ac-T[Aib][hPhe]CKR[Aib]NC[Tle]T-NH2; disulfide 4-9)
// result < 12.6 nM
